Each entry below carries its reported pIC50.
Molecular target: Amine oxidase [flavin-containing] A (Homo sapiens)
Sequence (P21397 whole entry): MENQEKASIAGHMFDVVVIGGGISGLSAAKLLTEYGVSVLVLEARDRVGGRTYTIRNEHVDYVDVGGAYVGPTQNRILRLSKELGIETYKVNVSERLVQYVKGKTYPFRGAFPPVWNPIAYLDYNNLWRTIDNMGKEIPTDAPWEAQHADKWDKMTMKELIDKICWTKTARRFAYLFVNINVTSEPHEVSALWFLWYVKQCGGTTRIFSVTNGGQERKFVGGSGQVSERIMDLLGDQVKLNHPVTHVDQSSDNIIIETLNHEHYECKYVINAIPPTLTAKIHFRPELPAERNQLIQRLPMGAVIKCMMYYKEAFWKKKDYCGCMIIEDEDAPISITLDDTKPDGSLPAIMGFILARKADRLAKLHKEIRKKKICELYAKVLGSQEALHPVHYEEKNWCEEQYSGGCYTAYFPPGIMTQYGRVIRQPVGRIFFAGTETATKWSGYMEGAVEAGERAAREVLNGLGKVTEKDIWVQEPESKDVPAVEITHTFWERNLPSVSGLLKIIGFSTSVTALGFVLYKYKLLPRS
pIC50: −log10 of the molar value.
quantity name: pIC50

* C=C[C@H]1[C@H](O[C@@H]2O[C@H](CO)[C@@H](O)[C@H](O)[C@H]2O)OC=C(C(=O)OC)[C@H]1C[C@H]1c2c(O)ccc3[nH]cc(c23)CCN1C | < 5.00
* C=C[C@H]1[C@H](O[C@@H]2O[C@H](COC(=O)/C=C/c3ccc(OC)c(OC)c3)[C@@H](O)[C@H](O)[C@H]2O)OC=C(C(=O)OC)[C@H]1C[C@H]1c2c(O)ccc3[nH]cc(c23)CCN1C | < 5.00
* C=C[C@H]1[C@H](O[C@@H]2O[C@H](CO)[C@@H](O)[C@H](O)[C@H]2O)OC=C(C(=O)OC)[C@H]1C[C@@H]1c2c(O)ccc3[nH]cc(c23)CCN1C | < 5.00

Origin of the recorded values: ChEMBL document CHEMBL4610078
